- RUN_DESCRIPTION: yeast display, Sf9 membrane polyspecificity reagent, FACS + sequencing; frameworks hold sequencing errors
ENDPOINT: polyreactivity (PSR sort gate)

INSERT INTO results (sequence_content, endpoint, experimental_result) VALUES
  ('QVQLVESGGGLVQAGRSLRLSCPASGRTVVYNSLGWYRQAPGKETEFVAAITRSRDSTYYADSVKGRFTISRDNASNPVYLEMNSLKPEDSAAYYCNAVSKRYWLMDYWGQGTQVTVSS', 'polyreactivity (PSR sort gate)', 'high polyreactivity'),
  ('QVQLVESGGGLVQAGGSLRLSCAASGLIFKTYTMGWYRQAPGKEREFVAAITTSGGSTYYADSVKGRFTISRDNAKNTVYLQMNSLKPEDTAVYYCAAVWWKSFQGSSYRMNYWGQGTQVTVSS', 'polyreactivity (PSR sort gate)', 'high polyreactivity');

====

- RUN_DESCRIPTION: yeast display, Sf9 membrane polyspecificity reagent, FACS + sequencing; frameworks hold sequencing errors
ENDPOINT: polyreactivity (PSR sort gate)

INSERT INTO assay_data (sequence_content, experimental_result) VALUES
  ('PVQLVESGGGLVQAGGSLRLSCAASGSTFPYYDMGWYRPAPGKEREMVAAISASTGSTYYADSVKGRFTISRDKAKITVYLHMYSLKPEVTAVYYCAAAYYYWYTAYDYWGQGTQVTVSS', 'high polyreactivity'),
  ('QVQLVESGGGLVQAGGSLRLSCAASGCIFVSHAMGWYRQAPGKERELVAAITSGDNTKYADSVKGRFTISRDNAKNTVYLQMNSLKPEDTAVYYCAVTYRYQGAGYYWGQGTQVTVSS', 'low polyreactivity'),
  ('QVQLVESGGGLVQAGGSLRLSCAASGFTFVYYAMGWSRQAPGKERELVAAISRSGATTYYADSVKGRFTISRDNAKNTVYLQMNSLKPEDTAVYYCAAVYRHPRENWPDTRYGYWGQGTQVTVSS', 'high polyreactivity'),
  ('QVQLVESGGGLVQAGGSLRLSCAASGLTFDSNAMGWYRQAPGKERELVAAISGSVGSTYYADSVKGRFTISRDNAKNTVYLQMNSLKPEDTAVYYCNASSVDKGYDYWGQGTQVTVSS', 'low polyreactivity'),
  ('QVQLVESGGGLDQAGGSLRLSCAASGRTFPYYAMGWYRQAPGKERELVAAISSSGGRTYYADSVKGRFTISRDNAKNTVYLQMNSLKPEDTAVYYCNVDAWYPYQGFLVGYYYWGQGTQVTVSS', 'low polyreactivity'),
  ('QGQLVDSGGGLVQAGGSLRLSCAASGFTVTRYAMGWYRTATGKERELVAAISWNSGSTYYADSVKGRFTISRDNAKNTVYLQMNSLKPEDTAVYYCAARDDQGYCYWGQGTQVTVSS', 'high polyreactivity'),
  ('QVQLVESGGGLVQAGGSLSLSCAASGRTFSYYAMGWYRQAPGKERELVAAISRSGSITYYADSVKGRFTISRDNAKNTIYLQMNSLKPEDTAVYYCNADSSRRRYSSDYWGQGTQVTVSS', 'high polyreactivity'),
  ('QVQLVESGGGLVQAGGSLRLSCAASGFNLRRNAMGWYRQAPGKERELVAAITSSGGRTTYADSVKGRFTISRDNAKNTVYLQMNSLKPEDTAVYYCAADFHVDYDYWGQGTQVTVSS', 'high polyreactivity'),
  ('QVQLVESGGGLVQAGGSLRLSCAASGSIFRYYVMGWYRQAPGKERELVASISYSVGRTYYADSVKGRFTISRDNAKNTVYLQMNSLKPEDTAVYYCAADRYWPYYSAYYTSYRMDYWGQGTQVTVSS', 'high polyreactivity'),
  ('QVQLVESGGGLVQAGGSLRLSCADSGSTFDDNAMGWYRQAPGKDRELVASITYRGGSTYYADSVKGRFTISRDNAKNTVYLQMNSLKPEDTAVYYCAKGHYFKYDYWGQGTQVTVSS', 'low polyreactivity'),
  ('QVQVVESGAGLVQAGGSLRISCAASGRNFVANAMGWYRQAPGKERELVAAISIIGAGTYYADSVKGRFTISRDNAKITVYLQMNSLKPEDTAVYYCATQYGWYIFGYWGQGSQVTVSS', 'high polyreactivity'),
  ('QVQLVESGGGLVQAGGSLRLSCAASGFTFQYYAMGWYRQAPGKERELVAAISWSGGSTYYADSVKGRFTISRDNAKNTVYLQMNSLKPEDTAVYYCAAAPYTYPLGFDYWGQGTQVTVSS', 'high polyreactivity'),
  ('QVQLVESGGGLVQAVGSLLLSCAASGITFRYYAMGWYRQAPGKERELVARITTDGSTHYADSVMGRFTISRDNAKNTVYLQMNSLKPEDTAVYYCNVDGYYLFVRGYEYWGLGTQVTVSS', 'low polyreactivity'),
  ('QVQLVESGGCLVQEGGSLRLSCAASGRIININAMGWSRHAPGKEREMVAAITWRSGSTYYADSVKGRFTISRDNAKNTVYLQLNSLKPEDTAVYFCAADFSQTRRPIRFYYWGQGTQVTVSS', 'high polyreactivity'),
  ('QVQLVESGGGLVQAGGSLRLSCAASGYTFLYNAMGWYRQAPGKERELVAAISWNGGRTYYADSVKGRFTISRDNAKNTVYLQMNSLKPEDTAVYYCAKTPSYGRNVDYWGQGTQVTVSS', 'high polyreactivity'),
  ('QVQLVESGGGLVQAGGSLRLSCADSGSIFQYNTMGWYRQAPGKERELVADINGRGGSTYYADSVKGRFTISRDNAKNTVYLQMNSLKPEDTAVYYCAVEGVSTYLWTSYGYWGQGTQVTVSS', 'low polyreactivity'),
  ('QVQLVESGGGLVQAGGSLRLSCAASGRTFQVNTMGWYRQAPGKERELVAAISSAGRTYYADSVKGRFTISRDNAQNTVYLQMNSLKPEDTAVYYCAAAWSYSYWKARYGYWGQGTQVTVSS', 'high polyreactivity'),
  ('QVHLVESGGGLVQAGGSLRLSCAASGSTNYYAMGRYRQAPGKEREFVSAISRDASSTYYADSVKGRFTISRDNAKNTVYLQMNSLKPEDTAVYYCAARIIRFSTSADKLVTSRYYYWGQGTQVTVSS', 'high polyreactivity'),
  ('QVQLVESGGGLVQAGGSLRLSCAASGRTFVTYTMGWYRPAPGKERELVAAISRDGRTYYADSVKGRFTISRDNAKNTVYLQMNSLKPEDTAVYYCATRYKSPSFDYWGQGTQVTVSS', 'high polyreactivity'),
  ('QVQLVESGGGLVQAGGSLRLSCAASGLTFADNTMGWYRQAPGKERELVAAIDWSGGGTDYADSVKGRFTISRDNAKNTDYLQMNSLKPEDTAVYYCNAERTSWEDDYWGQGTQVTVSS', 'low polyreactivity'),
  ('QVQLHESGGGMVQAGGSLRLSSAASGIIFDNPNMGWYRLSPGKERELVATINSGATTNYADSVKGRFTISRDNEKNTVYLLMNSLIPEETAVYFCAVDLSPTYFYYWGQGTKVTVSS', 'high polyreactivity');

====

- RUN_DESCRIPTION: yeast display, Sf9 membrane polyspecificity reagent, FACS + sequencing; frameworks hold sequencing errors
ENDPOINT: polyreactivity (PSR sort gate)

INSERT INTO results (sequence_content, experimental_result) VALUES
  ('QDQLVESGGGLVQAGGSLRLSCAASGSIIPFYAMGWYRQAPGKERELVAAITYSGGSTFYADSVKGRFTISRDNAKNTVYLQMNSLKPEDTAVYYCNAVWRFGSSKYYYWGQGTQVTVSS', 'high polyreactivity'),
  ('QVQLVESGGGLVQAGGSLRLSCAASGRTMGQNVMGLYRQAPGKERELVAAISSNTAGNTYYADSVKGRFTISRDNAKNTVYLQMNSLKPEDTAVYYCAKVDSFEAKLDYWGQGTQVTVSS', 'low polyreactivity'),
  ('QVQLVESGGGLVQAGGSLRLSCAASGSTFVRNAMGWYRQAPGKERELVAAITSSGGSTYYADSVKGRFTISRDNAKNTVYLQMNSLKPEDTAVYYCNAELGSDTANYDYWGQGTQVTVSS', 'low polyreactivity'),
  ('QVQLVESGGGLVQAGGSLRLSCAASGITFYDYAMGWYRQAPGKERELVASIDNSGGSTYYADSVKGRFTISRDNAKNTVYLQMNSLNPEDTAVYYCAAVSRYYFLGVAFLDDYWGQGTQVTVSS', 'high polyreactivity'),
  ('QVQHVESGGGLVQAGGSLRISCAPSGRTFFPNAMGCYRQAPGKEREFVAAITKTDDSTYYADSVKGRFTISRDNAKNTVYLPMNSLKPEDTAVYYCNAGDTQIRFYYWGQGTQETVSS', 'low polyreactivity');

====

- RUN_DESCRIPTION: yeast display, Sf9 membrane polyspecificity reagent, FACS + sequencing; frameworks hold sequencing errors
ENDPOINT: polyreactivity (PSR sort gate)

INSERT INTO measurements (sequence_content, experimental_result) VALUES
  ('QVQLVESGGGLVQAGGSLRLSCAASGIILSGYAMGWYRQAPGKDRELVAAIRRGGSTYYADSVKGRFTISRDNAKNTVYLQMNSLKPEDTAVYYCNAYSSRKVKWWDDYWGQGTQVTVSS', 'high polyreactivity'),
  ('QVQLVESGGGLVQAGGSLRLSCAASGRIFSYYAMGWYRQAPGKERELVAAISRGGTTNYADSVKGRFTISRDNAKNTVYLQMNSLKPEDTAVYYCNRDFHLIHLSSARLDYWGQGTQVTVSS', 'low polyreactivity'),
  ('QVQLVESGGGLVQAGGSLRLSCAASGIIFKVNAMGWYRQAPGKERELVAAISRRGGITYYADSVKGRFTISRDNAKNTVYLQMNSLKPEDSAVYYCAAAYSDYRFSTRYPYNYWGQGTQVTVSS', 'high polyreactivity'),
  ('QVQLVESGGGLVQAGGSLRLICAASGRTFYRYAMGWYRQAPGKERELVAAISRSGTTYYADSVKGRFTISRDNAKNTVYLQMNSLKPEDTAVYYCAAKPAGRQRGGDYWGQGTQVTVSS', 'high polyreactivity'),
  ('QVQLVESGGGLVQAGGSLRLSCAASGSTFLLNAMGWYRQAPGKERELVAAITSSGGTNYADSVKGRFTISRDNAKNTVYLQMISLKPEDTAVYYCNTRYSPGYQGTEVDYWGQGTQVTVSS', 'low polyreactivity');
